B1: Pistol ribozyme (parent)
chain: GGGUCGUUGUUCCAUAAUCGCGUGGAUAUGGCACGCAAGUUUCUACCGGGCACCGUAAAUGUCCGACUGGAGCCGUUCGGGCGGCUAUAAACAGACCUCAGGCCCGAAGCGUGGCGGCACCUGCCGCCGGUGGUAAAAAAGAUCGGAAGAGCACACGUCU

Variants of: B1
TEST NAME: aptazyme ON/OFF ratio, guanine; higher = stronger switching; co-transcriptional cleavage with and without guanine
EXPERIMENTAL ENDPOINT: aptazyme ON/OFF ratio
Numbers only.

| MUTATIONS | VALUE MEASURED |
| --- | --- |
| U7G U8A G9A U10A U11G C12A | 1.06 |

Give aptazyme ON/OFF ratio for each of the items listed below.
1. U7A U8G G9U U10A C13A
2. U8A G9U U10C U11G C12U
3. U7C U8G G9C U10C U11A C12U C13A
4. U7G U8G U10G C12U C13G
5. G9C U10G U11G
6. U7G U10A U11A C12A C13G
7. U7A U8G G9C U11G C12U C13U

[1.36, 1.18, 1.08, 1.04, 1.09, 1.11, 1.4]
